Biological target: CXCL12_HUMAN (human, UniProt P48061 22-89)
Sequence (P48061 22-89 limits assumed): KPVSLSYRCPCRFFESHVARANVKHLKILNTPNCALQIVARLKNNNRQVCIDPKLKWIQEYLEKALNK
Assay: BLI
Hi there, I'd appreciate the recorded Kd for every entry that follows.
Kindly answer with a numeric value in nM, unit omitted.

Problem: Please report the recorded Kd for P1086_IXORI (other) GSKGQRASQVSETSITAEFCDTSCTQGTDKTWSGCSGDCFCVHVGNDTEGRCMRWDGDYPSAEEEE .
Solution: 142

Problem: Please report the recorded Kd for P1104_IXORI (other) ESKEASASQGPGKSFKVEFCETNCTENNGVWSGCTGDCICVSVGDSKEGRCMDLGDKVIDTPVAQG .
Solution: 67.8

Problem: Please report the recorded Kd for P1124_IXORI (other) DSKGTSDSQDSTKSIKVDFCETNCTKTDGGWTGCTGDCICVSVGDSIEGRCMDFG .
Solution: 212
